system: UniProtKB P10275
Sequence (P10275 whole entry): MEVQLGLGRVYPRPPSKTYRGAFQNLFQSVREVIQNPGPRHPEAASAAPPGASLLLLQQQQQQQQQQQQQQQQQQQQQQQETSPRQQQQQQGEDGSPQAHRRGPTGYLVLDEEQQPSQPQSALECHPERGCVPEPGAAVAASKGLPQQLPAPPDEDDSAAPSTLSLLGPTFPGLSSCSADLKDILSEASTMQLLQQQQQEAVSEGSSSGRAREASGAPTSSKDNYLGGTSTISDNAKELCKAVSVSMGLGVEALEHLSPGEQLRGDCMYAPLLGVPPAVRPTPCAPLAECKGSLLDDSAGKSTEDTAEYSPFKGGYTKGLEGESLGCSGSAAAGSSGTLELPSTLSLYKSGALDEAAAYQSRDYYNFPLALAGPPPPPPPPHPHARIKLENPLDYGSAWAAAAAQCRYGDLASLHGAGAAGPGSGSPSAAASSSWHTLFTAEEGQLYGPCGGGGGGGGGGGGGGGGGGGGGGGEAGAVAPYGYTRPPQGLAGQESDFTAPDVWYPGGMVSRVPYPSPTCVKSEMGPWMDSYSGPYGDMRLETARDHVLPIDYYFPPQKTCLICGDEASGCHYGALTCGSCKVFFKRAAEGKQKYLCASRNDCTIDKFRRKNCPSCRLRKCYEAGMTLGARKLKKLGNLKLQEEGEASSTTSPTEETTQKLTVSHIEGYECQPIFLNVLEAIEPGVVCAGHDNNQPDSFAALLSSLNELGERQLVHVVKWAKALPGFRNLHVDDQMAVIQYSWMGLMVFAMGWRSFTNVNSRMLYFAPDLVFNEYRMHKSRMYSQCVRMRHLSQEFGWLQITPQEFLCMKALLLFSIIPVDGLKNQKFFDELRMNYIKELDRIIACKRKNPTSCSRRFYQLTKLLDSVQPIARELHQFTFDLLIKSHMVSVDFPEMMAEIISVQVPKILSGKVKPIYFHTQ
protocol description: Binding affinity against Androgen receptor transfected into COS cells
Known Ki of a selection of compounds
Please state the figure in nM; there is no need to write the unit.

Recorded results for 4 compounds are shown here.
C[C@@H]1c2cc3c(C(F)(F)F)cc(O)nc3cc2N[C@@H]1C	6
C[C@H]1CC[C@H]2Nc3cc4nc(O)cc(C(F)(F)F)c4cc3[C@H]2C1	23
C[C@H]1Nc2cc3[nH]c(=O)cc(C(F)(F)F)c3cc2C1(C)C	21
Oc1cc(C(F)(F)F)c2cc3c(cc2n1)N[C@@H]1CCCC[C@H]31	5

Item C[C@H]1Nc2cc3c(cc2C1(C)C)c(C(F)(F)F)cc(=O)n3C was tested on UniProtKB P10275; the reported Ki is 9

Cited source: ChEMBL document CHEMBL1130772
